src = the supplement of paper PMC12669032

Test system: Bacteroides caccae
assay name: growth AUC relative to DMSO control (median of replicates) (fraction); higher = more growth (less inhibition), active = hit call of the paper
assay conditions: 20 µM; 24 h
observation type: growth AUC
Form field (numeric): enter value without unit.

Below are worked cases with known answers.
COC(=O)[C@@H](C)N(C(=O)Cc1ccccc1)c1c(C)cccc1C; 0.968
Oc1cc(Cl)cc(Cl)c1; 1.01
N#CCNC(=O)c1cnccc1C(F)(F)F; 1.01
CCOC(=O)OC1=C(c2cc(C)ccc2C)C(=O)NC12CCC(OC)CC2 (stereo unspecified); 1
O=C(NC(=O)c1c(F)cccc1F)Nc1ccc(Cl)c(Oc2ncc(C(F)(F)F)cc2Cl)c1; 0.985
CCOC(=O)CC(SP(=S)(OC)OC)C(=O)OCC (stereo unspecified); 0.953
COC(=O)COc1cc(Cl)c(Cl)cc1Cl; 1.01
CCS(=O)(=O)c1cccnc1S(=O)(=O)NC(=O)Nc1nc(OC)cc(OC)n1; 1.01

Incoming: Quick one: growth AUC for `Cc1ccccc1[N+](=O)[O-]` ?
Outgoing: 0.996

Incoming: Quick one: growth AUC for CCOP(=S)(Oc1ccc([N+](=O)[O-])cc1)c1ccccc1 (stereo unspecified) ?
Outgoing: 0.961

Incoming: Quick one: growth AUC for `CNC(=O)O/N=C/C(C)(C)S(C)(=O)=O` ?
Outgoing: 0.994

---

Test system: Lactobacillus gasseri
assay name: growth AUC relative to DMSO control (median of replicates) (fraction); higher = more growth (less inhibition), active = hit call of the paper
assay conditions: 20 µM; 24 h
fulfilled means recorded growth AUC is 1 or above; not fulfilled means it is below 1.

Incoming: Does the reported growth AUC for OC(Cc1ccccc1Cl)(Cn1cncn1)C1(Cl)CC1 (stereo not drawn) fall at or above the 1 mark?
Outgoing: fulfilled

Incoming: Does the reported growth AUC for CC1(C)C(C=C(Cl)Cl)C1C(=O)OC(C#N)c1ccc(F)c(Oc2ccccc2)c1 (mixture of isomers) fall at or above the 1 mark?
Outgoing: not fulfilled

Incoming: Does the reported growth AUC for `N#Cc1c(Cl)cccc1Cl` fall at or above the 1 mark?
Outgoing: fulfilled

Incoming: Does the reported growth AUC for `O=C(Nc1ccc(F)cc1F)c1cccnc1Oc1cccc(C(F)(F)F)c1` fall at or above the 1 mark?
Outgoing: not fulfilled

---

Tested on: Bifidobacterium longum subsp. longum
assay name: growth AUC relative to DMSO control (median of replicates) (fraction); higher = more growth (less inhibition), active = hit call of the paper
assay conditions: 20 µM; 24 h
true (1) means recorded growth AUC is 1 or above; false (0) means it is below 1.

// known answers, use as guide
Cc1ccc(-c2c(Cl)nc(C#N)n2S(=O)(=O)N(C)C)cc1; true (1)
CCN(CC)N=O; true (1)
CCNc1nc(NC(C)(C)C)nc(SC)n1; false (0)
O=C(O)C1(O)c2ccccc2-c2ccc(Cl)cc21 (stereo unspecified); false (0)
C=CCC1=C(C)C(OC(=O)C2C(C=C(C)C)C2(C)C)CC1=O (stereo unspecified); false (0)
O=S(=O)(c1ccc(Cl)cc1)c1cc(Cl)c(Cl)cc1Cl; true (1)

Lab note: next compound to report on.
Incoming: Does the reported growth AUC for `Cc1cc(C(F)(C(F)(F)F)C(F)(F)F)ccc1NC(=O)c1cccc(I)c1C(=O)NC(C)(C)CS(C)(=O)=O` fall at or above the 1 mark?
Outgoing: true (1)

---

Test system: Coprococcus comes
assay name: growth AUC relative to DMSO control (median of replicates) (fraction); higher = more growth (less inhibition), active = hit call of the paper
assay conditions: 20 µM; 24 h
observation type: growth AUC
Form field (numeric): enter value without unit.

Below are worked cases with known answers.
CC(C)NC(=O)N1CC(=O)N(c2cc(Cl)cc(Cl)c2)C1=O; 1.01
O=C1C[C@@H]2OCC=C3CN4CC[C@]56c7ccccc7N1[C@H]5[C@H]2[C@H]3C[C@H]46; 0.984
CN(C)C(CSS(=O)(=O)c1ccccc1)CSS(=O)(=O)c1ccccc1; 1.03
CNC(=O)O/N=C(\C)C(C)S(C)=O (stereo not given); 1.01

Below: the item to evaluate.
Incoming: Quick one: growth AUC for `CCCOCC(=Nc1ccc(Cl)cc1C(F)(F)F)n1ccnc1` ?
Outgoing: 0.505

---

System: Lactobacillus paracasei
assay name: growth AUC relative to DMSO control (median of replicates) (fraction); higher = more growth (less inhibition), active = hit call of the paper
assay conditions: 20 µM; 24 h
Parameter: growth AUC. Scope: all listed entries.
Form field (numeric): enter value without unit.

Below are worked cases with known answers.
C[Si](Cn1cncn1)(c1ccc(F)cc1)c1ccc(F)cc1; 0.925
COC(=O)c1ccccc1S(=O)(=O)NC(=O)Nc1nc(C)cc(C)n1; 0.948
CCOCN(C(=O)CCl)c1c(C)cccc1CC; 1.05
CCCN(CC1CC1)c1c([N+](=O)[O-])cc(C(F)(F)F)cc1[N+](=O)[O-]; 0.977

Incoming: Report growth AUC for `COP(=S)(OC)Oc1ccc([N+](=O)[O-])c(Cl)c1` tested on Lactobacillus paracasei.
Outgoing: 0.974

Incoming: Report growth AUC for CCN(CC)C(=O)C(C)Oc1cccc2ccccc12 (stereo unspecified) tested on Lactobacillus paracasei.
Outgoing: 0.977

Incoming: Report growth AUC for `O=[N+]([O-])NC1=NCOCN1Cc1cnc(Cl)s1` tested on Lactobacillus paracasei.
Outgoing: 0.988

---

Tested on: Bifidobacterium longum subsp. longum
assay name: growth AUC relative to DMSO control (median of replicates) (fraction); higher = more growth (less inhibition), active = hit call of the paper
assay conditions: 20 µM; 24 h
observation type: growth AUC
Form field (numeric): enter value without unit.

COP(=O)(OC)OC1=C(Cl)C2C=CCC12 (configuration not stated); 1.01
CO/N=C(/C1=NOCCO1)c1ccccc1Oc1ncnc(Oc2ccccc2Cl)c1F; 0.845
O=C(Nc1ccccc1)Nc1cnns1; 1.03
Cc1cc(Cl)ccc1OC(C)C(=O)O (configuration not stated); 0.88
O=C1OCC2C1C1(Cl)C(Cl)=C(Cl)C2(Cl)C1(Cl)Cl (configuration not stated); 1.06

Incoming: Quick one: growth AUC for `COC(=O)c1ccccc1S(=O)(=O)NC(=O)N(C)c1nc(C)nc(OC)n1` ?
Outgoing: 1.01

---

Test system: Escherichia coli ED1a
assay name: growth AUC relative to DMSO control (median of replicates) (fraction); higher = more growth (less inhibition), active = hit call of the paper
assay conditions: 20 µM; 24 h
Parameter: growth AUC. Scope: all listed entries.
Form field (numeric): enter value without unit.

Below are worked cases with known answers.
C=C(C)CN(CC)c1c([N+](=O)[O-])cc(C(F)(F)F)cc1[N+](=O)[O-]; 0.921
COP(=S)(OC)SCN1C(=O)c2ccccc2C1=O; 1
CO/N=C(/C(=O)OC)c1ccccc1CO/N=C(\C)c1cccc(C(F)(F)F)c1; 0.978

Incoming: Quick one: growth AUC for CC(C)=CC1C(C(=O)OCN2C(=O)C3=C(CCCC3)C2=O)C1(C)C (stereo not given) ?
Outgoing: 0.995

Incoming: Quick one: growth AUC for `C=CCN(CC=C)C(=O)C(Cl)Cl` ?
Outgoing: 0.944

---

Tested on: Bacteroides uniformis
assay name: growth AUC relative to DMSO control (median of replicates) (fraction); higher = more growth (less inhibition), active = hit call of the paper
assay conditions: 20 µM; 24 h
True means recorded growth AUC is 1 or above; False means it is below 1.

// known answers, use as guide
O=c1oc2ccccc2c(O)c1C(CC(O)c1ccc(-c2ccc(Br)cc2)cc1)c1ccccc1 (configuration not stated); False
CC(CCl)OP(=O)(OC(C)CCl)OC(C)CCl (mixture of isomers); False
CCC(=O)Nc1ccc(Cl)c(Cl)c1; False
Cc1cnc2c(C(=O)O)c(Cl)ccc2c1; True
S=C1NCCN1; True

Incoming: Does the reported growth AUC for `CSc1nc(N=[N+]=[N-])nc(NC(C)C)n1` fall at or above the 1 mark?
Outgoing: True

Incoming: Does the reported growth AUC for `O=C(O)CCl` fall at or above the 1 mark?
Outgoing: False

Incoming: Does the reported growth AUC for CC(C)(C)C(O)C(Oc1ccc(-c2ccccc2)cc1)n1cncn1 (mixture of isomers) fall at or above the 1 mark?
Outgoing: False

Incoming: Does the reported growth AUC for `C[n+]1ccc(-c2cc[n+](C)cc2)cc1.O.[Cl-].[Cl-]` fall at or above the 1 mark?
Outgoing: True

Incoming: Does the reported growth AUC for `COc1ccc(C(c2ccc(OC)cc2)C(Cl)(Cl)Cl)cc1` fall at or above the 1 mark?
Outgoing: False

Incoming: Does the reported growth AUC for CC(Oc1ccc(Oc2ncc(C(F)(F)F)cc2Cl)cc1)C(=O)O (configuration not stated) fall at or above the 1 mark?
Outgoing: False

Incoming: Does the reported growth AUC for CC(C)(C)C(O)/C(=C/c1ccc(Cl)cc1Cl)n1cncn1 (mixture of isomers) fall at or above the 1 mark?
Outgoing: False

Incoming: Does the reported growth AUC for CNC(=O)ON=C(C)C(C)SC (configuration not stated) fall at or above the 1 mark?
Outgoing: False

Incoming: Does the reported growth AUC for `Cc1cc(Cl)ccc1O[C@H](C)C(=O)O` fall at or above the 1 mark?
Outgoing: False

Incoming: Does the reported growth AUC for CC1(C)CCC(Cc2ccc(Cl)cc2)C1(O)Cn1cncn1 (configuration not stated) fall at or above the 1 mark?
Outgoing: False

Incoming: Does the reported growth AUC for ClCC(Br)CBr (configuration not stated) fall at or above the 1 mark?
Outgoing: False

Incoming: Does the reported growth AUC for `CN(C)C(CSC(N)=O)CSC(N)=O.Cl` fall at or above the 1 mark?
Outgoing: True

Incoming: Does the reported growth AUC for `CCNS(=O)(=O)C(F)(F)C(F)(F)C(F)(F)C(F)(F)C(F)(F)C(F)(F)C(F)(F)C(F)(F)F` fall at or above the 1 mark?
Outgoing: False

Incoming: Does the reported growth AUC for `CCCCOCN(C(=O)CCl)c1c(CC)cccc1CC` fall at or above the 1 mark?
Outgoing: False

Incoming: Does the reported growth AUC for CCC(C)(NC(=O)c1cc(Cl)c(C)c(Cl)c1)C(=O)CCl (configuration not stated) fall at or above the 1 mark?
Outgoing: False
